A collection of molecules and their measured MIC Streptococcus pneumoniae (GC 1894)
system: Streptococcus sp.; experiment: In vitro antibacterial evaluation: minimum inhibitory concentration (MIC), broth dilution method; assay type: cell-based; conditions: broth dilution, inoculum 5×10^5 CFU/mL, 18 hours at 35° C.
Text: […]

# Molecule, Test System, Unit Tag, Value Modifier, MIC Streptococcus pneumoniae (GC 1894)
data = [
    ("COc1ccc2cc(COCC3OC(OC4C(CO)OC(Oc5ccc(CC6NC(=O)C(C(C)c7ccccc7)NC(=O)CNC(=O)C(CO)NC(=O)C(C(O)C7CNC(=N)N7C7OC(CO)C(O)C(O)C7O)NC(=O)C(C(O)C7CNC(=N)N7)NC6=O)cc5)C(O)C4O)C(O)C(O)C3O)ccc2c1 (centres unmarked) [Example 230]", "Streptococcus sp.", "µg/mL", "<", 0.06),
    ("COc1ccc2cc(COC3C(OC4C(CO)OC(Oc5ccc(CC6NC(=O)C(C(C)c7ccccc7)NC(=O)CNC(=O)C(CO)NC(=O)C(C(O)C7CNC(=N)N7C7OC(CO)C(O)C(O)C7O)NC(=O)C(C(O)C7CNC(=N)N7)NC6=O)cc5)C(O)C4O)OC(CO)C(O)C3O)ccc2c1 (centres unmarked) [Example 230c]", "Streptococcus sp.", "µg/mL", "=", 16),
]
